# target under test: Methionine--tRNA ligase (Escherichia coli) (UniProt P00959)
# Sequence (P00959 whole entry, looked up): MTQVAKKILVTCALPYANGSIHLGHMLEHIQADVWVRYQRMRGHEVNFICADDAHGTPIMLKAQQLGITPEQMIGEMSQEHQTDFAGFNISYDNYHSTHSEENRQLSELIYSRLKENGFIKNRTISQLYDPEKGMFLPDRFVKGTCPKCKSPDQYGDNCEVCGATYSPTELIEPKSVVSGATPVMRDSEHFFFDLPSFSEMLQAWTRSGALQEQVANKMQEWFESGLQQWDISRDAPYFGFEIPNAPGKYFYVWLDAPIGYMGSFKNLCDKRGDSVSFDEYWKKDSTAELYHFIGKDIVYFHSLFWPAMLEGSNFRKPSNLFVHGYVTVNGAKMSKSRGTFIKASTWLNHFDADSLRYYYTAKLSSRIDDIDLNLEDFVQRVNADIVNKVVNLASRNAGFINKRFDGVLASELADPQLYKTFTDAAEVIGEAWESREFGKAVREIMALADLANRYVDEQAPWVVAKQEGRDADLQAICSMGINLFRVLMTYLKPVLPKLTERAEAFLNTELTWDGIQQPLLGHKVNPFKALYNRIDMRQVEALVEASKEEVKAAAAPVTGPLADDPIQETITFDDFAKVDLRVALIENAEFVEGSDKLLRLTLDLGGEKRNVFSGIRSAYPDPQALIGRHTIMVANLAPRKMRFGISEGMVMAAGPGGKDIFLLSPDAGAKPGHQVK
Param label: returns 1 when IC50 < 30 µM, returns -1 otherwise, including exact equality.

These solved cases illustrate the format of a correct answer.
Problem: A record lists "CSCC[C@H](N)C(=O)OC[C@H]1O[C@@H](Cn2cnc3c(N)ncnc32)[C@H](O)[C@@H]1O" . Is its IC50 below 30 µM?
Solution: 1

Problem: A record lists "CSCC[C@H](N)C(=O)N(O)C[C@H]1O[C@@H](CCn2nnc(-c3ccccc3)n2)[C@H](O)[C@@H]1O" . Is its IC50 below 30 µM?
Solution: -1

Problem: A record lists "CSCC[C@H](N)C(=O)N(O)C[C@H]1O[C@@H](CCn2cnc3c(NCc4ccccc4)ncnc32)[C@H](O)[C@@H]1O" . Is its IC50 below 30 µM?
Solution: 1

Problem: A record lists "CSCC[C@H](N)C(=O)N(O)C[C@H]1O[C@@H](Cn2cnc3c(N)ncnc32)[C@H](O)[C@@H]1O" . Is its IC50 below 30 µM?
Solution: 1

Next:
Problem: A record lists "CSCC[C@H](N)C(=O)OC[C@H]1O[C@@H](CCn2cnc3c(NCc4ccccc4)ncnc32)[C@H](O)[C@@H]1O" . Is its IC50 below 30 µM?
Solution: -1

FYI, the data here is from BindingDB's records for doi:10.1016/s0960-894x(01)00095-6.
